- ASSAYED SYSTEM: UT receptors in HSMM (Human Skeletal Muscle Myoblasts) (Homo sapiens)
- Sequence (Q9UKP6 whole entry): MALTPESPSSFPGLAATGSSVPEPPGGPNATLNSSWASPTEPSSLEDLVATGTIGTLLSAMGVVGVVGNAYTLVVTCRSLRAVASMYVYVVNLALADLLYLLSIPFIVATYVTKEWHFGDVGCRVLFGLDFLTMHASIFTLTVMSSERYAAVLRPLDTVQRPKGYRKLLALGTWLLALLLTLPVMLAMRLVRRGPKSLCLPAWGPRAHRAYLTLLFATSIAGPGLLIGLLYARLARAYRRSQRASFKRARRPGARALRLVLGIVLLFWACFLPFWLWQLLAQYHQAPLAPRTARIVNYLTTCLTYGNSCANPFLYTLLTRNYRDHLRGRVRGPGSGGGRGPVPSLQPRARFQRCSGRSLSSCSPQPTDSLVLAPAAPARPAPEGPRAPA
- ASSAY REMARKS: Human Radioligand Binding Assay ((^125I)-U-II binding to intact HSMM)
pKi: −log10 of the molar value.

[
  {
    "MOLECULE": "CCN1CCN(c2cccc3c2CN([C@H](CCCOCc2ccccc2F)c2ccc(OC)c(OC)c2)C3=O)CC1",
    "BOUND OPERATOR": "<",
    "pKi": 6.52
  },
  {
    "MOLECULE": "CCN1CCN(c2cccc3c2CN(C(c2ccc(OC)c(OC)c2)C2CCN(S(=O)(=O)c4cccs4)CC2)C3=O)CC1 (centres unmarked)",
    "BOUND OPERATOR": "<",
    "pKi": 6.52
  },
  {
    "MOLECULE": "COc1ccc([C@@H](CCCn2ccnc2)N2Cc3c(cccc3N3CCNCC3)C2=O)cc1OC",
    "BOUND OPERATOR": "=",
    "pKi": 5.96
  },
  {
    "MOLECULE": "CCN1CCN(c2cccc3c2CN([C@H](CCCN(Cc2ccc(F)cc2)C2CC2)c2ccc(OC)c(OC)c2)C3=O)CC1",
    "BOUND OPERATOR": "=",
    "pKi": 7.47
  },
  {
    "MOLECULE": "CCN1CCN(c2cccc3c2CN([C@H](CCCNCc2ccccc2)c2ccc(OC)c(OC)c2)C3=O)CC1",
    "BOUND OPERATOR": "=",
    "pKi": 7.59
  },
  {
    "MOLECULE": "CCN1CCN(c2cccc3c2CN([C@H](CCCOc2ccccc2)c2ccc(OC)c(OC)c2)C3=O)CC1",
    "BOUND OPERATOR": "=",
    "pKi": 7.64
  },
  {
    "MOLECULE": "CCN1CCN(c2cccc3c2CN([C@H](CCCn2ccnc2C)c2ccc(OC)c(OC)c2)C3=O)CC1",
    "BOUND OPERATOR": "=",
    "pKi": 6.80
  },
  {
    "MOLECULE": "CCN1CCN(c2cccc3c2CN([C@H](CCCNC(=O)Nc2ccccc2)c2ccc(OC)c(OC)c2)C3=O)CC1",
    "BOUND OPERATOR": "=",
    "pKi": 7.08
  },
  {
    "MOLECULE": "CCN1CCN(c2cccc3c2CN(C(c2cccc(NS(=O)(=O)c4cccs4)c2)c2ccc(OC)c(OC)c2)C3=O)CC1 (centres unmarked)",
    "BOUND OPERATOR": "=",
    "pKi": 7.18
  },
  {
    "MOLECULE": "CCN1CCN(c2cccc3c2CN([C@H](CCCn2cc(C)nc2C)c2ccc(OC)c(OC)c2)C3=O)CC1",
    "BOUND OPERATOR": "<",
    "pKi": 6.52
  },
  {
    "MOLECULE": "CCN1CCN(c2cccc3c2CN([C@H](CCCNc2c(N)c(=O)c2=O)c2ccc(OC)c(OC)c2)C3=O)CC1",
    "BOUND OPERATOR": "=",
    "pKi": 7.48
  },
  {
    "MOLECULE": "CCN1CCN(c2cccc3c2CN([C@H](CCCN2CCc4ccccc4C2)c2ccc(OC)c(OC)c2)C3=O)CC1",
    "BOUND OPERATOR": "=",
    "pKi": 7.68
  },
  {
    "MOLECULE": "CCN1CCN(c2cccc3c2CN([C@H](CCCNc2ccccn2)c2ccc(OC)c(OC)c2)C3=O)CC1",
    "BOUND OPERATOR": "=",
    "pKi": 7.22
  },
  {
    "MOLECULE": "CCN1CCN(c2cccc3c2CN([C@H](CCCNC(=O)c2cn(C)cn2)c2ccc(OC)c(OC)c2)C3=O)CC1",
    "BOUND OPERATOR": "=",
    "pKi": 7.31
  },
  {
    "MOLECULE": "CCN1CCN(c2cccc3c2CN([C@H](CCCNc2nc(C)cc(C)n2)c2ccc(OC)c(OC)c2)C3=O)CC1",
    "BOUND OPERATOR": "=",
    "pKi": 7.27
  },
  {
    "MOLECULE": "CCN1CCN(c2cccc3c2CN([C@H](CCCNc2ccc4ccccc4n2)c2ccc(OC)c(OC)c2)C3=O)CC1",
    "BOUND OPERATOR": "<",
    "pKi": 6.52
  },
  {
    "MOLECULE": "CCN1CCC(C(c2ccc(OC)c(OC)c2)N2Cc3c(cccc3N3CCN(CC)CC3)C2=O)CC1 (centres unmarked)",
    "BOUND OPERATOR": "<",
    "pKi": 6.52
  },
  {
    "MOLECULE": "CCN1CCN(c2cccc3c2CN([C@H](CCCN(C)Cc2cccc(F)c2)c2ccc(OC)c(OC)c2)C3=O)CC1",
    "BOUND OPERATOR": "=",
    "pKi": 7.23
  },
  {
    "MOLECULE": "CCN(CC)CCC[C@H](c1ccc(OC)c(OC)c1)N1Cc2c(cccc2N2CCN(CC)CC2)C1=O",
    "BOUND OPERATOR": "<",
    "pKi": 6.52
  },
  {
    "MOLECULE": "CCN1CCN(c2cccc3c2CN([C@H](CCCNS(=O)(=O)N(C)C)c2ccc(OC)c(OC)c2)C3=O)CC1",
    "BOUND OPERATOR": "=",
    "pKi": 7.27
  }
]
